System: HIV-1 MN
assay name: Multi-cycle neutralization assay in MT-2 cells
run parameters: Human immunodeficiency virus 1, MT2, read-out: IC50 (μM) ± S.D., inhibitory activity on infection
measurement label: IC50 (µM)
Report only the number, with the unit µM understood.

Lookup: Entry Cc1nc(C(NC(=O)C(=O)Nc2ccc(Cl)c(F)c2)C2CCCCN2)sc1CO (stereo not shown) : reported IC50 = ?
Found: 18.5

###

System: Panel C env ZM-249M.PL1, SVPC10
Format: cell-based
run parameters: TZM-bl, read-out: IC50 (μM) ± S.D., antiviral activity against HIV-1 envelope pseudoviruses
Assignment: determine reported IC50 for the given compounds.
Report only the number, with the unit µM understood.

Lookup: Entry Cc1nc(C(NC(=O)C(=O)Nc2ccc(Cl)cc2)C2CCCCN2)sc1CO.Cl (stereo not shown) : reported IC50 = ?
Found: 1.5

Lookup: Entry Cc1nc(C(NC(=O)C(=O)Nc2ccc(Cl)c(F)c2)C2CCCCN2)sc1CCO.Cl (stereo not shown) : reported IC50 = ?
Found: 2.5

Lookup: Entry CC1(C)CC(NC(=O)C(=O)Nc2ccc(Cl)cc2)CC(C)(C)N1 [NBD-556, reference compound] : reported IC50 = ?
Found: 6.1

###

target of assay: HIV-1IIIB gp120 and sCD4 (Human immunodeficiency virus type 1 group M subtype B, UniProt P03375)
Construct: recombinant gp120 from HIV-1IIIB and HIV-1MN
assay name: biochemical
Format: binding
run parameters: captured ELISA, sCD4 0.25 μg/ml; read-out: IC50 (μM ± SD), interaction HIV-1IIIB gp120 and sCD4
measurement label: IC50
Please append the unit to your numeric answer.

Lookup: Entry CN1C(=O)[C@@H](c2cc(Cl)c(O)c(Cl)c2)NC(=O)[C@@H]2NC(=O)[C@@H](c3cc(Cl)c(O)c(Cl)c3)NC(=O)[C@H](NC(=O)C(=O)c3cc(Cl)c(O)c(Cl)c3)Cc3c[nH]c4c(cccc34)-c3cc2cc(c3O)Oc2ccc(cc2)C[C@H]1C(=O)N[C@@H](C(=O)O)c1ccc(O)cc1 [Chloropeptin] : reported IC50 = ?
Found: 0.31 µM

Lookup: Entry CC1(C)CC(NC(=O)C(=O)Nc2ccc(Cl)cc2)CC(C)(C)N1 [NBD-556, reference compound] : reported IC50 = ?
Found: 2.11 µM

###

target of assay: gp120 (Human immunodeficiency virus type 1 group M subtype B)
assay name: biochemical
Type: binding, HIV-1
measurement label: pKd
Reminder that pKd means the negative base-10 logarithm of the concentration expressed in mol/L.

Lookup: Provide the documented pKd with gp120 (Human immunodeficiency virus type 1 group M subtype B) as the system for CC1(C)CC(NC(=O)C(=O)Nc2ccc(Br)cc2)CC(C)(C)N1
Found: 4.38

###

Assignment: determine reported IC50 for the given molecules.
System: Panel B env pCAAN5342 clone A2 (SVPB19)
Type: cell-based
run parameters: TZM-bl, read-out: IC50 (μM) ± S.D., antiviral activity against HIV-1 envelope pseudoviruses
Report only the number, with the unit µM understood.

Lookup: Provide the documented IC50 with Panel B env pCAAN5342 clone A2 (SVPB19) as the system for Cc1nc(C(NC(=O)C(=O)Nc2ccc(Cl)c(F)c2)C2CCCCN2)sc1CCO.Cl (stereo not shown)
Found: 0.8

Lookup: Provide the documented IC50 with Panel B env pCAAN5342 clone A2 (SVPB19) as the system for CC1(C)CC(NC(=O)C(=O)Nc2ccc(Cl)cc2)CC(C)(C)N1 [NBD-556, reference compound]
Found: 2.4

Lookup: Provide the documented IC50 with Panel B env pCAAN5342 clone A2 (SVPB19) as the system for Cc1ccc(NC(=O)C(=O)NC(c2nc(C)c(CO)s2)C2CCCCN2)cc1F.Cl (stereo not shown)
Found: 1.5

Lookup: Provide the documented IC50 with Panel B env pCAAN5342 clone A2 (SVPB19) as the system for Cc1nc(C(NC(=O)C(=O)Nc2ccc(Cl)cc2)C2CCCCN2)sc1CO.Cl (stereo not shown)
Found: 2.3

###

System: laboratory-adapted HIV-1 IIIB strain
run parameters: read-out: MT-2 Cells IC50 (μM ± SD); multi-cycle assay, MT-2 cells, HIV-1 IIIB
Assignment: determine reported IC50 for the given compounds.
Report only the number, with the unit µM understood.

Lookup: Entry Cc1nc(C(NC(=O)C(=O)Nc2ccc(F)cc2)C2CCCCN2)sc1CO.Cl (centres unmarked) : reported IC50 = ?
Found: 48

Lookup: Entry Cc1nc(C(NC(=O)C(=O)Nc2ccc(F)c(Cl)c2)C2CCCCN2)sc1CO.Cl.Cl (centres unmarked) : reported IC50 = ?
Found: 9.5

Lookup: Entry Cc1nc(C(NC(=O)C(=O)Nc2ccc(Cl)cc2)C2CCCNC2)sc1CCO (centres unmarked) : reported IC50 = ?
Found: 13.1

Lookup: Entry Cc1nc(C(NC(=O)C(=O)Nc2ccc(C(F)(F)F)cc2)C2CCCCN2)sc1CCO.Cl.Cl (centres unmarked) : reported IC50 = ?
Found: 17.4

Lookup: Entry Cc1nc(C(NC(=O)C(=O)Nc2ccc(Cl)cc2)C2CCCCN2)sc1CO.Cl (centres unmarked) : reported IC50 = ?
Found: 4.7

Lookup: Entry CNCC(NC(=O)C(=O)Nc1ccc(Cl)cc1)c1nc(C)c(CCO)s1 (centres unmarked) : reported IC50 = ?
Found: 24.3

Lookup: Entry Cc1ccc(NC(=O)C(=O)NC(c2nc(C)c(CCO)s2)C2CCCCN2)cc1F.Cl (centres unmarked) : reported IC50 = ?
Found: 3.7

Lookup: Entry Cc1nc(C(NC(=O)C(=O)Nc2ccc(Cl)cc2)C2CCNCC2)sc1CCO (centres unmarked) : reported IC50 = ?
Found: 30.5

###

System: TZM-bl cells
assay name: Cytotoxicity in TZM-bl cells (XTT)
Format: cell-based
Assignment: determine reported CC50 for the given compounds.

Lookup: Entry CNCC(NC(=O)C(=O)Nc1ccc(Cl)cc1)c1nc(C)c(CCO)s1 (centres unmarked) [Compound 16] : reported CC50 = ?
Found: 16.6 µM

Lookup: Entry Cc1nc(C(NC(=O)C(=O)Nc2ccc(Cl)cc2)C2CCCN2)sc1CCO (centres unmarked) [Compound 15] : reported CC50 = ?
Found: ~4.9 µM

Lookup: Entry Cc1nc(C(NC(=O)C(=O)Nc2ccc(F)cc2)C2CCCCN2)sc1CO.Cl (centres unmarked) [Compound 25] : reported CC50 = ?
Found: > 90 µM

Lookup: Entry CC(=O)c1ccc(NC(=O)C(=O)NC(c2nc(C)c(CCO)s2)C2CCCCN2)cc1 (centres unmarked) [Compound 34] : reported CC50 = ?
Found: > 77.3 µM

Lookup: Entry Cc1nc(C(NC(=O)C(=O)Nc2ccc(Cl)cc2)C2CCNCC2)sc1CCO (centres unmarked) [Compound 11] : reported CC50 = ?
Found: ~85.4 µM

###

Tested on: primary HIV-1 isolate 93BR029 (clade F, R5)
assay name: Neutralization assay in PBMC (p24 ELISA)
run parameters: Human immunodeficiency virus 1, PBMC, read-out: IC50 (μM) ± S.D., inhibitory activity on infection
measurement label: IC50 (µM)
Report only the number, with the unit µM understood.

Lookup: Entry Cc1nc(C(NC(=O)C(=O)Nc2ccc(Cl)c(F)c2)C2CCCCN2)sc1CO (stereo not shown) : reported IC50 = ?
Found: 9.9

###

System: Panel C env CAP-210.2.00.E8, SVPC17
Assay type: cell-based
run parameters: TZM-bl, read-out: IC50 (μM) ± S.D., antiviral activity against HIV-1 envelope pseudoviruses
measurement label: IC50 (µM)
Report only the number, with the unit µM understood.

Lookup: Entry CC1(C)CC(NC(=O)C(=O)Nc2ccc(Cl)cc2)CC(C)(C)N1 [NBD-556, reference compound] : reported IC50 = ?
Found: 13.3

Lookup: Entry Cc1nc(C(NC(=O)C(=O)Nc2ccc(Cl)c(F)c2)C2CCCCN2)sc1CCO.Cl (stereo not shown) [Compound 39] : reported IC50 = ?
Found: 3.2

Lookup: Entry Cc1nc(C(NC(=O)C(=O)Nc2ccc(Cl)cc2)C2CCCCN2)sc1CO.Cl (stereo not shown) [Compound 6] : reported IC50 = ?
Found: 15.1

###

Tested on: MT-2 cells
assay name: Cytotoxicity in MT-2 cells (XTT)
Type: cell-based
run parameters: MT-2 cells, XTT, four days; listed as NBD-110017; read-out: MT-2 Cells CC50
measurement label: CC50

Lookup: Entry Cc1ccc(NC(=O)C(=O)NC(c2nc(C)c(CCO)s2)C2CCCCN2)cc1F.Cl (stereo not shown) [Compound 38] : reported CC50 = ?
Found: > 87 µM

###

System: laboratory-adapted HIV-1 IIIB strain
run parameters: read-out: MT-2 Cells IC50 (μM ± SD); multi-cycle assay, MT-2 cells, HIV-1 IIIB
measurement label: IC50 (µM)
Report only the number, with the unit µM understood.

Lookup: Entry Cc1nc(C(NC(=O)C(=O)Nc2ccc(Cl)c(F)c2)C2CCCCN2)sc1CCO.Cl (stereo not shown) : reported IC50 = ?
Found: 3.5

Lookup: Entry Cc1nc(C(NC(=O)C(=O)Nc2ccc(Cl)cc2)C2CCCN2)sc1CCO (stereo not shown) : reported IC50 = ?
Found: 16.2

Lookup: Entry Cc1nc(C(NC(=O)C(=O)NC2CCCCCC2)C2CCCCN2)sc1CCO (stereo not shown) : reported IC50 = ?
Found: 19.6

Lookup: Entry Cc1nc(C(NC(=O)C(=O)Nc2ccc(F)c(Cl)c2)C2CCCCN2)sc1CCO.Cl.Cl (stereo not shown) : reported IC50 = ?
Found: 19.5

Lookup: Entry Cc1ccc(NC(=O)C(=O)NC(c2nc(C)c(CO)s2)C2CCCCN2)cc1F.Cl (stereo not shown) : reported IC50 = ?
Found: 5.3
